Target: Fuc(a1-2)Gal(b1-3)[Fuc(a1-4)]GlcNAc(b1-2)Man(a1-3)[Fuc(a1-2)Gal(b1-3)[Fuc(a1-4)]GlcNAc(b1-2)Man(a1-6)]Man(b1-4)GlcNAc(b1-4)GlcNAc
Test: glycan array binding signal (z-score within array); higher = stronger binding
Conditions: glycan notation: IUPAC condensed, linker removed
Shown is part of a subset that was picked to be rich in the strongest signals.
EXPERIMENTAL_READOUT: glycan array binding signal (z-score)
One number for each entry.

Examples from the recorded data:
BINDER | glycan array binding signal (z-score)
Pp2-A2 (Arabidopsis thaliana), Q07098 (protein) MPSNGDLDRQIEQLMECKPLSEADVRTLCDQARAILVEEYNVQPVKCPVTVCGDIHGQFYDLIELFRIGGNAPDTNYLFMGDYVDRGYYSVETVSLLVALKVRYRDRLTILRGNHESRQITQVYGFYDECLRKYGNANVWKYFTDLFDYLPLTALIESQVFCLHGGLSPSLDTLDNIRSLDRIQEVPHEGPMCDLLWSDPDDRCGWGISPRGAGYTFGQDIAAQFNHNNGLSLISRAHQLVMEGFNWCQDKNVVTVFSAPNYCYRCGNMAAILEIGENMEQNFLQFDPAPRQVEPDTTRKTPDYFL | 2.08
HPAIIITrx (Helix pomatia), Q1KM18 (protein) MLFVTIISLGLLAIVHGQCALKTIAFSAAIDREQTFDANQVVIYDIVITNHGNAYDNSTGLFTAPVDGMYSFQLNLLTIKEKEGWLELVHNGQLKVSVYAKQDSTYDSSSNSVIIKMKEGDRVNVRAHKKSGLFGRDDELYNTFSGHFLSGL | 3.07
CCL1 (Coprinopsis cinerea) (protein) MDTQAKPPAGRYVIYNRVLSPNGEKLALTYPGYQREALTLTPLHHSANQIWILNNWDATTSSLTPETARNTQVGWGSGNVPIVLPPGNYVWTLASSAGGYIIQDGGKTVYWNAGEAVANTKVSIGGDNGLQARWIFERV | -0.006
DGL (Dioclea grandiflora), P08902 (protein) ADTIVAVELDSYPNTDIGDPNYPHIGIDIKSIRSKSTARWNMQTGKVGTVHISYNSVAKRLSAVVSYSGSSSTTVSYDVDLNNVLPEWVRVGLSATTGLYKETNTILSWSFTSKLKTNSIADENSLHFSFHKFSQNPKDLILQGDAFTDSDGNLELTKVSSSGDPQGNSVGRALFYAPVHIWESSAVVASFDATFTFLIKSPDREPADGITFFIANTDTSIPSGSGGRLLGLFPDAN | -0.169
Morniga (Morus nigra) (protein) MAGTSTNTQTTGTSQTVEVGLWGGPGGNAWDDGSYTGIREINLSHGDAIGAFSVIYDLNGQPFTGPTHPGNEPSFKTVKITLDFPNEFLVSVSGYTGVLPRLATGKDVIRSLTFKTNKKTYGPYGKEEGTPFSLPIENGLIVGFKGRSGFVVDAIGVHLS | -0.19

For this binder ( LcH (Lens culinaris), P02870 (protein) TETTSFSITKFSPDQQNLIFQGDGYTGKEGLTLTKVSKETGGRALYSTPIHIWDRDTVNVANFVTNGSQVFRESPNGYNVADGFTFFIAPVDTKPQTGGGYLGVFYNGKEYDKTSQTVAVEFDTFYNAAWDPSNKERHIGIDVNSIKSVNTKSWNLQNGVTSYTLNEVVPLKDVVPEWVRIGFSATTGAEFAAQEVHSWSFNSQLGHTSKS ), measured glycan array binding signal (z-score) is -0.091
